System: TAG
Test: TAG lipid buildup inhibition with viability readout – cell-based, panel, Nile Red and DAPI fluorescence, H9c2, dose response (AID 651630);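 note: cells exposed to compound overnight before fixation and staining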
Conditions: H9c2 cells, Nile Red TAG fluorescence, oleic acid, mean of runs
Activity calls are given as the source filed them.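 Rule for the calls: active = lipid-stain IC50 at or below a set limit, with nuclear-stain toxicity IC50 at least five times higher; inactive = the rest.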
Response enum: T = active, F = inactive

The following molecules have reported results that may help.
INSERT INTO assay_data (molecule, group_label) VALUES
  ('COc1cc(NC(=O)Nc2nc(C(N)Cc3ccc(C(F)(F)F)cc3)cs2)cc(OC)c1OC (configuration not stated)', 'T'),
  ('COc1ccc(NC(=O)N(C)[C@H]2C[C@H]3c4[nH]c5ccc(-c6ccc7c(c6)OCO7)cc5c4CCN3C[C@H]2[C@H](C)O)cc1', 'T'),
  ('O=C1NC(Cc2ccc(O)cc2)c2nc3ccc(Cl)cc3c(=O)n2-c2cc3ccccc3cc21 (configuration not stated)', 'F'),
  ('O=C(C[C@H]1C[C@H](C(=O)N2CCOCC2)[C@@]2(CCC3CCCC3)c3[nH]c4ccc(Cl)cc4c3CCN2C1=O)NCC12CC3CC(CC(C3)C1)C2', 'F'),
  ('COc1cc2c3c(c1)c(C1=NC(=S)NC1=O)c(O)n3C(C)(C)C=C2C', 'T');

Query: I would be grateful if you could indicate the recorded call for "C[C@H](O)[C@@H]1CN2CCc3c([nH]c4ccc(-c5ccc6c(c5)OCO6)cc34)[C@@H]2C[C@@H]1N(C)C(=O)Nc1ccc(F)cc1" .
Response: T

Query: What would you report for COc1ccc(NC(=O)c2nc(C)c(C3(C)CC(c4ccccc4)=NO3)s2)cc1 (configuration not stated) ?
Response: T

Query: What would you report for CCC(C)(C)NC(=O)C(c1ccc(OC)cc1)N(CC1CCCO1)C(=O)CCC(=O)Nc1cc(C)on1 (configuration not stated) ?
Response: T

* * *

Test system: TAG
Assay: TAG lipid buildup inhibition with viability readout – cell-based, panel, Nile Red and DAPI fluorescence, H9c2, dose response (AID 651630);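 note: cells exposed to compound overnight before fixation and staining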
Conditions: H9c2 cells, Nile Red TAG fluorescence, oleic acid, mean of runs
Active and inactive are the calls of the source.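 The calls were made as follows: active = lipid-stain IC50 at or below a set limit, with nuclear-stain toxicity IC50 at least five times higher; inactive = the rest.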
Response enum: active, inactive

The following compounds have reported results that may help.
INSERT INTO results (compound, group_label) VALUES
  ('O=C1C(Cl)=C(NCc2ccco2)C(=O)c2ccccc21', 'inactive'),
  ('COc1ccc(CNC(=O)Nc2nc(C(N)Cc3ccc(Cl)cc3)cs2)cc1 (stereo not given)', 'inactive'),
  ('CCCCCCSc1ccc([C@H]2N[C@@](CC(C)C)(C(=O)OC)[C@H]3C(=O)N(C)C(=O)[C@@H]23)cc1OC', 'inactive'),
  ('Cc1occc1C(=O)NC(C)CCc1ccccc1 (stereo not given)', 'inactive'),
  ('CCN(CC)S(=O)(=O)c1ccc(N2CCOCC2)c(NC(=O)c2[nH]c(C)c(C(C)=O)c2C)c1', 'active'),
  ('O=[N+]([O-])c1cccc(S(=O)(=O)N2CN(c3ccc(Br)cc3)c3nc4ccccc4nc32)c1', 'active'),
  ('COc1ccc(C[C@H]2CN3C(=NC[C@@H]3Cc3ccc(O)cc3)N2CCNC(=O)c2ccc(C)c(Br)c2)cc1', 'inactive'),
  ('CN(C)CCNC(=O)C(=O)Nc1ccc2c(c1)N(S(=O)(=O)c1cccs1)CCC2', 'inactive');

Next up:
Query: I would be grateful if you could indicate the recorded call for "C[C@@H]1CN([C@H](C)CO)C(=O)c2c(c3ccccc3n2C)-c2ccccc2CO[C@H]1CN(C)Cc1ccc(Oc2ccccc2)cc1" .
Response: inactive

* * *

Test system: TAG
Assay: TAG lipid buildup inhibition with viability readout – cell-based, panel, Nile Red and DAPI fluorescence, H9c2, dose response (AID 651630);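 note: cells exposed to compound overnight before fixation and staining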
Conditions: H9c2 cells, Nile Red TAG fluorescence, oleic acid, mean of runs
Active and inactive are the calls of the source.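 The calls were made as follows: active = lipid-stain IC50 at or below a set limit, with nuclear-stain toxicity IC50 at least five times higher; inactive = the rest.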
Response enum: t (active), f (inactive)

The following molecules have reported results that may help.
INSERT INTO assay_data (molecule, group_label) VALUES
  ('COc1ccc(OC)c(N(CCN2C(=O)c3ccccc3C2=O)C(=O)CCl)c1', 'f'),
  ('Nc1c(C(=O)Nc2ccccc2)c2nc3ccccc3nc2n1CCCN1CCOCC1', 't');

Query: I would be grateful if you could indicate the recorded call for "CSc1ccc(C2=C/C(=C3/SC(=S)NC3=O)c3ccccc3O2)cc1" .
Response: t

Query: What would you report for "COc1cccc(NC(=O)N2CCc3nc(Nc4ccc(C(C)C)cc4)ncc3C2)c1" ?
Response: t

Query: What would you report for "CC(C)(C)c1ccc(/C=N/NC(=O)Cc2c[nH]c3ccccc23)cc1" ?
Response: f

Query: What would you report for "CCOc1ccc2nc(-c3ccccc3)nc(SCC(=O)Nc3ncc(C)s3)c2c1" ?
Response: f

Query: What would you report for "COc1ccc(-c2cc(CNc3nc(NC(C)C)nc4cc(-c5ccccc5)sc34)on2)cc1" ?
Response: t

Query: What would you report for "O=C(Cc1coc2ccc3ccccc3c12)Nc1nccs1" ?
Response: f

Query: What would you report for "CN(C)CCNC(=O)c1cccc(-c2cnc3c(NC=O)cc(-c4cccc(C(F)(F)F)c4)cn23)c1" ?
Response: f

* * *

Below: a set of entries, each annotated with reported IC50 cytotoxicity (DAPI nuclear signal decrease).
System: DAPI
Assay: TAG lipid buildup inhibition with viability readout – cell-based, panel, Nile Red and DAPI fluorescence, H9c2, dose response (AID 651630);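 note: cells exposed to compound overnight before fixation and staining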
Conditions: H9c2 cells, DAPI nuclear fluorescence (cytotoxicity counter-readout), oleic acid, run 2

Query: What value of IC50 cytotoxicity (DAPI nuclear signal decrease) on DAPI does "N/C(=N\c1nc2ccccc2o1)NC(=O)c1ccc(F)cc1" have?
Response: > 25 µM

Query: What would you report for COc1ccc(NC(=O)C2(C)Cc3c(-c4cccc(NC(C)=O)c4)ccnc3O2)cn1 (stereo unspecified) ?
Response: > 25 µM

* * *

Below: a set of entries, each annotated with reported IC50 cytotoxicity (DAPI nuclear signal decrease).
Test system: DAPI
Assay: TAG lipid buildup inhibition with viability readout – cell-based, panel, Nile Red and DAPI fluorescence, H9c2, dose response (AID 651630);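 note: cells exposed to compound overnight before fixation and staining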
Conditions: H9c2 cells, DAPI nuclear fluorescence (cytotoxicity counter-readout), oleic acid, run 2

Previously resolved entries follow.
INSERT INTO measurements (compound, reported_result) VALUES
  ('N=c1n(CCO)c2ccccc2n1CCOc1ccc(Cl)cc1Cl', '23.1 µM'),
  ('O=C(c1cc(-c2ccncc2)nc2c(Cl)cccc12)N1CCN(c2ccccc2F)CC1', '> 25 µM');

Query: Would you mind telling me what IC50 cytotoxicity (DAPI nuclear signal decrease) value was observed for "COc1cc(-c2cnc3c(NC=O)cc(-c4cccnc4)cn23)cc(OC)c1OC" ?
Response: > 25 µM

Query: What would you report for "Nc1ccc2ccccc2c1N=Nc1ccccc1" ?
Response: > 25 µM

Query: What would you report for "NC(=O)N/N=C/c1c(Sc2nnnn2-c2ccccc2)nc2ccccn2c1=O" ?
Response: 18.7 µM

Query: What would you report for "Cc1cc(NC(=O)CSc2nc3ccccc3c(=O)n2C2CCCC2)no1" ?
Response: > 25 µM

* * *

System: TAG
Test: TAG lipid buildup inhibition with viability readout – cell-based, panel, Nile Red and DAPI fluorescence, H9c2, dose response (AID 651630);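 note: cells exposed to compound overnight before fixation and staining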
Details: H9c2 cells, Nile Red TAG fluorescence, oleic acid, mean of runs
Active and inactive are the calls of the source.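 How the source made its calls: active means lipid-stain IC50 at or below a set limit, with nuclear-stain toxicity IC50 at least five times higher; inactive means the rest.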
Response enum: YES = active, NO = inactive

INSERT INTO measurements (compound, group_label) VALUES
  ('CCCc1cc(N2CCCC2)n2nc(C)c(-c3ccccc3)c2n1', 'NO'),
  ('COc1cccc(Nc2nnc(SCc3cc([N+](=O)[O-])cc4c3OCOC4)s2)c1', 'NO'),
  ('O=C(CC1C[C@H](C(=O)N2CCCCC2)[C@@]2(CCc3ccccc3)c3[nH]c4ccccc4c3CCN2C1=O)NCc1cccc(C(F)(F)F)c1 (stereo not given in full)', 'YES'),
  ('C#CCN(C[C@@H]1[C@@H](OC(=O)NCc2ccco2)[C@@H](OC(=O)NCc2ccco2)CN(C(=O)OC(C)C)N1C(=O)OC(C)C)S(=O)(=O)c1ccc(C)cc1', 'NO');

Next up:
Query: I would be grateful if you could indicate the recorded call for "Cn1nc(-c2ccc(Cl)cc2)c2cc(C(=O)NC3CC3)sc21" .
Response: YES

* * *

System: TAG
Assay: TAG lipid buildup inhibition with viability readout – cell-based, panel, Nile Red and DAPI fluorescence, H9c2, dose response (AID 651630);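 note: cells exposed to compound overnight before fixation and staining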
Conditions: H9c2 cells, Nile Red TAG fluorescence, oleic acid, mean of runs
Active and inactive are the calls of the source.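 Rule for the calls: active = lipid-stain IC50 at or below a set limit, with nuclear-stain toxicity IC50 at least five times higher; inactive = the rest.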
Response enum: 1.0 for active, 0.0 for inactive

The following compounds have reported results that may help.
INSERT INTO assay_data (compound, group_label) VALUES
  ('CCO[C@@H]1OC(C(=O)N2CCN(Cc3ccccc3)CC2)=C[C@H](c2ccc(C(F)(F)F)cc2)[C@H]1CCCO', 1.0),
  ('CCOCCC(=O)Nc1ccc2c(c1)c(=O)n(C)n2C/C=C/c1ccccc1', 0.0),
  ('O=[N+]([O-])c1ccccc1/C=C/C=N/Nc1ccc(S(=O)(=O)Nc2ccc(Cl)cc2)cc1[N+](=O)[O-]', 1.0),
  ('C[C@H](CO)N1C[C@H](C)[C@H](CN(C)S(=O)(=O)c2ccc(Cl)cc2)OCc2ccccc2-c2c(n(C)c3ccccc23)C1=O', 0.0),
  ('COc1ccc2sc(-c3ccc(N(C)C)cc3)c(C#CCCO)c2c1', 1.0);

Query: I would be grateful if you could indicate the recorded call for "CCN(C[C@H]1N[C@@](CC)(C(=O)OC)[C@H]2C(=O)N(Cc3ccccc3)C(=O)[C@@H]12)S(=O)(=O)c1ccc(C(C)(C)C)cc1" .
Response: 1.0

Query: What would you report for "CCn1c(SCC(=O)Nc2nc(-c3ccc(C)cc3)cs2)nnc1-c1ccccc1O" ?
Response: 1.0

Query: What would you report for "COc1ccccc1-c1cc(C(F)(F)F)nc(S(=O)(=O)CCCC(=O)NC(C)C)n1" ?
Response: 1.0

Query: What would you report for Cc1cccc(NC(=O)C(C)Sc2nc3ccccc3c(=O)n2CCCN2CCOCC2)c1 (stereo not drawn) ?
Response: 0.0

Query: What would you report for "CCCCCC(=O)Nc1nc(C)c(-c2csc(Nc3cc(OC)ccc3OC)n2)s1" ?
Response: 1.0

Query: What would you report for "CSc1nc(N(C)NC(=O)c2ccccc2)c2ccccc2n1" ?
Response: 0.0

Query: What would you report for CC(C)(C)NC(=O)C(c1ccc(-c2ccccc2)cc1)N(C[C@H]1CC[C@@H]([C@@H]2CC[C@H](CO)O2)O1)C(=O)c1ccc2ccccc2c1 (stereo partly drawn) ?
Response: 1.0

Query: What would you report for "O=C1N[C@@H](Cc2ccccc2)COC(=O)[C@@H](Cc2ccc(F)cc2)CC/C=C/C[C@@H]1CC(=O)N(CCO)Cc1ccccc1" ?
Response: 0.0

Query: What would you report for "COc1cc(C#Cc2c(-c3cncn3C)n(C)c3ccc(-c4ccc(OC)c(OC)c4)cc23)cc(OC)c1" ?
Response: 1.0

Query: What would you report for "c1ccc(N(c2ccccc2)c2nc(N3CCCC3)nc(-n3ccnc3)n2)cc1" ?
Response: 0.0

Query: What would you report for "COCCn1cnc2c(c1=O)c1nc3ccccc3nc1n2/N=C/c1ccc(OC)c(OC)c1" ?
Response: 1.0

Query: What would you report for CC(C)C[C@H]1C(=O)N2CCC[C@H]2[C@]2(O)O[C@](NC(=O)C3C=C4c5cccc6[nH]c(Br)c(c56)C[C@H]4N(C)C3)(C(C)C)C(=O)N12 (stereo partly drawn) ?
Response: 1.0

Query: What would you report for "Cn1nnnc1Sc1ncnc2scc(-c3cccc(S(C)(=O)=O)c3)c12" ?
Response: 0.0
